System: UniProt:Q12809
Sequence (Q12809 whole entry): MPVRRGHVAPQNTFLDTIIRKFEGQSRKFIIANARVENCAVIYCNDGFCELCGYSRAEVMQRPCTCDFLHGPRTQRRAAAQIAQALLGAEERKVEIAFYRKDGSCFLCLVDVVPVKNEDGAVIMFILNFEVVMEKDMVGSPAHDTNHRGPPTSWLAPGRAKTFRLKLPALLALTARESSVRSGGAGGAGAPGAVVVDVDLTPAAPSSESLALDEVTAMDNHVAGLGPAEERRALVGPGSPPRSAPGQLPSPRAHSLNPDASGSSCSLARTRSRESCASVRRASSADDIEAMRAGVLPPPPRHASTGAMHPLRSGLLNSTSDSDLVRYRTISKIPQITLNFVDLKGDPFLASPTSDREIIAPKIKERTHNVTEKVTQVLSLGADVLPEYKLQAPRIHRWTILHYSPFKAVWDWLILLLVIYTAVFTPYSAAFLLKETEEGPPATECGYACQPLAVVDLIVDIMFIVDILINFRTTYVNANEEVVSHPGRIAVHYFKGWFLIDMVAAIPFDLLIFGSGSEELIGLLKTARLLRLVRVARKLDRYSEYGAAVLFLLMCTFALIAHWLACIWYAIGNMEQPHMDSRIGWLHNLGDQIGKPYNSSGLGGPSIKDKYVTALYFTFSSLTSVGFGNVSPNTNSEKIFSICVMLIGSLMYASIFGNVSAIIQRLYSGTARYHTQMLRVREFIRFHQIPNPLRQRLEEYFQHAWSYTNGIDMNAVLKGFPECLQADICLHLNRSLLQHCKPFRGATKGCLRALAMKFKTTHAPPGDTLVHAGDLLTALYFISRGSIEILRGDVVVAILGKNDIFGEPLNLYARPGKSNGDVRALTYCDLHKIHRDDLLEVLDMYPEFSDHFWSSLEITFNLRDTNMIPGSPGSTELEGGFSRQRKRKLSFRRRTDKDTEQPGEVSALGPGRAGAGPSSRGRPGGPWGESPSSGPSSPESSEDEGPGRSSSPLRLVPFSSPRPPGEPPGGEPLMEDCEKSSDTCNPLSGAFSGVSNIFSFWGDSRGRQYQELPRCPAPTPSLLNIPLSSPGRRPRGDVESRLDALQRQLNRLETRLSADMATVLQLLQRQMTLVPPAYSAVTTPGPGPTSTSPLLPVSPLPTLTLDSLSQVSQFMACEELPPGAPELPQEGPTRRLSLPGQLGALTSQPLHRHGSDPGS
Observation Type: IC50

What does the record list as IC50 for Cn1ncnc1[C@H]1c2n[nH]c(=O)c3cc(F)cc(c23)N[C@@H]1c1ccc(F)cc1 [TALAZOPARIB] ?
> 100 µM

###

Assay: Plasma protein binding in human
Format: ADME, cell-free
Assay Conditions: read-out: PPB (converted)
Observation Type: fraction unbound
One number for each entry.

What value of fraction unbound has been reported for the following compound? "Cn1ncnc1[C@H]1c2n[nH]c(=O)c3cc(F)cc(c23)N[C@@H]1c1ccc(F)cc1"
0.213

###

Assay: Clearance in Sprague-Dawley rat at 5 mg/kg, iv by LC-MS/MS analysis
Assay type: ADME, organism-based
Assay Conditions: in vivo
Observation Type: clearance (mL/min/kg)
Answers are plain numbers, in mL/min/kg.

> print(dat)
                                  structure  unit.string  recorded.number
1  Cn1ncnc1[C@H]1c2n[nH]c(=O)c3cc(F)cc(c23)N[C@@H]1c1ccc(F)cc1    mL/min/kg                2
2  O=c1[nH]nc2c3c(cccc13)N[C@H](c1ccc(CN3CCC3)cc1)[C@H]2c1ccc(F)cc1    mL/min/kg               26
3  Cn1ccnc1[C@H]1c2n[nH]c(=O)c3cccc(c23)N[C@@H]1c1ccc(F)cc1    mL/min/kg                4

Here are 2 molecules. What values of clearance were reported for them?
1. O=C(c1cc(Cc2n[nH]c(=O)c3ccccc23)ccc1F)N1CCN(C(=O)C2CC2)CC1
2. Cn1ncnc1[C@H]1c2n[nH]c(=O)c3cccc(c23)N[C@@H]1c1ccc(F)cc1

[34.3, 2]
